# target under test: Sigma non-opioid intracellular receptor 1 (Homo sapiens) (UniProt Q99720)
# Sequence (Q99720 whole entry): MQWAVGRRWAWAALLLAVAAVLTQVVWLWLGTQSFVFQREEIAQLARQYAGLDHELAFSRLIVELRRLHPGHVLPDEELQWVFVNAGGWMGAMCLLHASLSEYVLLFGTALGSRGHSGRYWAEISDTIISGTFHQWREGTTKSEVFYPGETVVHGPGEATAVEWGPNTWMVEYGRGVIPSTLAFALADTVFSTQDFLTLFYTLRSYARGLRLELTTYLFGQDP
# run conditions: Compound concentration 10 µM
# Description: PDSP Primary Binding target: SIGMAR1 - Compounds are tested at 10 uM concentration, plate are incubated at room temperature in the dark for 90 minutes. Reaction are stopped by vacuum filtration onto 0.3% polyethyleneimine soaked filter mats using Filtermate harvester. Scintilation cocktail is then melted onto microwave-dried filters on a hot plate and the radio activity is counted in Microbia counter.
Class field: derived from inhibition; ranges bottom end (below 20%), midrange (20% to below 70%), top end (70% or more)

Input line: Note: place this compound into its band. Item: Cc1cc(C)cc(C(=O)N(C)[C@H](Cc2ccc(-c3ccccc3)cc2)C(=O)N[C@@H](Cc2c[nH]c3ccccc23)C(=O)O)c1
Output line: bottom end

Input line: Note: place this compound into its band. Item: COc1cc(-n2cnc3cc(-c4ccc(Cl)cc4)sc3c2=O)ccc1OCCN1CCCC1
Output line: top end

Input line: Note: place this compound into its band. Item: O=C(O)Cn1c(C(=O)Nc2nc(-c3ccccc3Cl)cs2)cc2ccccc21
Output line: bottom end

Input line: Note: place this compound into its band. Item: N=C(N)SCCc1c[nH]cn1
Output line: bottom end

Input line: Note: place this compound into its band. Item: N[C@H](C(=O)O)c1ccc(C(=O)O)c(C(=O)O)c1
Output line: bottom end

Input line: Note: place this compound into its band. Item: O=C(O)C1CN(Cc2ccc(OCc3ccc(Cl)c(Cl)c3)cc2)C1
Output line: top end

Input line: Note: place this compound into its band. Item: CN1C2CCC1CC(OC(c1ccc(F)cc1)c1ccc(F)cc1)C2 (stereo unspecified)
Output line: top end

Input line: Note: place this compound into its band. Item: CCCn1c(=O)c2nc(C34CC5CC(CC3C5)C4)[nH]c2n(CCC)c1=O
Output line: midrange

Input line: Note: place this compound into its band. Item: CCCCCNC(=O)NS(=O)(=O)c1cc([N+](=O)[O-])ccc1NC1CCCCC1
Output line: bottom end

Input line: Note: place this compound into its band. Item: CN1CCCC(n2nc(Cc3ccc(Cl)cc3)c3ccccc3c2=O)CC1 (stereo unspecified)
Output line: top end

Input line: Note: place this compound into its band. Item: CN(C)S(=O)(=O)c1ccc(NC(=S)N2CCC(C(O)(c3ccccc3)c3ccccc3)CC2)cc1
Output line: midrange

Input line: Note: place this compound into its band. Item: Clc1cccc(COc2cncc(N3CCNCC3)n2)c1
Output line: top end

Input line: Note: place this compound into its band. Item: Cc1cn2cc(CC(=O)N3CCC4(CC3)CN(Cc3ccc(-n5nccn5)cc3Cl)C4)nc2s1
Output line: midrange

Input line: Note: place this compound into its band. Item: CN1CCC(=C2c3ccccc3CC(=O)c3sccc32)CC1
Output line: bottom end

Input line: Note: place this compound into its band. Item: CC(C)(C(=O)O)c1ccc(C(O)CCCN2CCC(C(O)(c3ccccc3)c3ccccc3)CC2)cc1 (stereo unspecified)
Output line: midrange

Input line: Note: place this compound into its band. Item: C/C(=N\NC(=O)[C@@H]1C(=O)NC[C@H]1c1ccccc1)c1cccc(Br)c1
Output line: midrange

Input line: Note: place this compound into its band. Item: COc1ccc(S(=O)(=O)N2c3ccc(Cl)cc3[C@](O)(c3ccccc3Cl)[C@@H]2C(=O)N2CCC[C@H]2C(N)=O)cc1OC
Output line: bottom end

Input line: Note: place this compound into its band. Item: COc1ccc(NS(=O)(=O)c2sc3ccc(Cl)cc3c2C)cc1N1CCNCC1
Output line: top end

Input line: Note: place this compound into its band. Item: CC(C)NCC(O)COc1cccc2ccccc12 (stereo unspecified)
Output line: midrange

Input line: Note: place this compound into its band. Item: CC(C)[C@H](CO)Nc1nc(Nc2cccc(Cl)c2)c2ncn(C(C)C)c2n1
Output line: bottom end
